Measured GI50 by item
System: Hs-578T
Test protocol: NCI tumour cell line growth inhibition, 48 h
Calls of active or inactive are those of the source. Rule as the data show it: active = GI50 up to about 1.1 µM and inactive = higher.
Quantity measured: GI50

CC(NNC(=O)c1ccncc1)c1ccc(Cl)cc1Cl (stereo not given) :: > 100 µM (inactive)
O=C(/C=C/c1ccc(O)cc1)NCCc1ccc(O)cc1 [N-P-COUMAROYL TYRAMINE] :: > 12.5 µM (inactive)
Cc1cc(N2CCCC2)c([N+](=O)[O-])cc1[N+](=O)[O-] :: 90.4 µM (inactive)
Nc1nc(N)c2nn(-c3ccc(C(=O)O)cc3)nc2n1 :: > 100 µM (inactive)
COC(=O)CCCc1ccc2c(c1)CC1(Cc3ccccc3C1)C2 :: > 100 µM (inactive)
C=C(C)CC1=C(C(=S)NCCO[Si](C)(C)C(C)(C)C)C(OCC)(OCC)C1=O :: 24.8 µM (inactive)
CC[N+]1(C)CCC(O)(/C=C/c2ccc(Cl)c(Cl)c2)C(C(=O)/C=C/c2ccc(Cl)c(Cl)c2)C1 (stereo not given) :: 2.91 µM (inactive)
O=C(/C=C(O)/C(=C/C(=O)c1ccccc1)NN=C(c1ccccc1)c1ccccc1)c1ccccc1 :: 29.2 µM (inactive)
O=c1cc(NNc2cccc(Cl)c2)[nH]c(=O)[nH]1 :: > 100 µM (inactive)
Cn1c2ccccc2n2c3ccccc3c3nnc(N)c-3c12 :: 1.69 µM (inactive)

====

Test system: RXF 393
Test protocol: NCI tumour cell line growth inhibition, 48 h
Calls of active or inactive are those of the source. Cut-off read from the data, not from the text of the source: active = GI50 up to about 1.1 µM and inactive = higher.
Outcome codes: True = active, False = inactive

CN(CCn1cnc2c1c(=O)n(C)c(=O)n2C)C1CCCCC1 :: False
NC(=O)c1nnn(-c2ccccc2)c1O :: False
Nc1ncnc2c1nc(Cl)n2C1OC2COP(=O)(O)OC2C1O (centres undefined) :: False
COc1ccc(/N=N/c2c(-c3ccccc3)nn(C(=O)CC(=O)Nc3ccccc3Cl)c2-c2ccccc2)cc1 :: False
C/C(=N\OCC(O)CNCCSCc1ccccc1)c1ccccc1Cl (centres undefined) :: False
CN(CC(=O)O)c1ncc2c(n1)C=CCC2 :: False
CCN(CC)CCNc1c2ccccc2nc2cccc([N+](=O)[O-])c12 :: True
O=C(Nc1ccccc1C(=O)NCc1ccccc1)/C(=C/c1ccccc1O)NC(=O)c1ccccc1 :: False
O=C1C(Cl)C(c2cc3cc(Br)ccc3nc2Cl)N1c1ccc(F)c(Cl)c1 (centres undefined) :: False
COc1ccc(C(=O)Nc2ccc(O)c(=O)cc2)cc1 :: False
COc1ccc2c(c1)/C(=C\c1c(C)nc3n1CCS3)C(=O)N2 :: False
COC(=O)C(Cc1ccc(N(C)C)cc1)(NC(=O)c1ccccc1)P(=O)(OC)OC (centres undefined) :: False
Clc1ccccc1C(SCc1ccccc1)SCc1ccccc1 :: False
CN(C)CCn1c(CO)nc2c1c(=O)n(C)c(=O)n2C :: False
COc1ccc(C)c2c1N[C@](C)([C@]1(C)Nc3c(OC)ccc(C)c3C1=O)C2=O :: False
CC(O)CN1C(=O)NC(Cc2ccccc2)C1=O (centres undefined) :: False
CC(=O)OC1(Sc2ccccc2)CC2[C@H]3COC(C)(C)O[C@H]3CC[C@@]2(C)CC1=O (some centres undefined) :: False
Cc1ccc(S(=O)(=O)N(CCN2C(=O)c3ccccc3C2=O)c2cc3c4c(c2)Oc2cc(N(CCN5C(=O)c6ccccc6C5=O)S(=O)(=O)c5ccc(C)cc5)cc5c2C4(C)c2c(cc(N(CCN4C(=O)c6ccccc6C4=O)S(=O)(=O)c4ccc(C)cc4)cc2O5)O3)cc1 :: False
CCn1c(=N)sc2nc3ccccc3n2c1=O :: False
CCOP(=O)(OCC)OC1CC(n2cc(C)c(=O)n(C)c2=O)OC1CO[Si](C)(C)C(C)(C)C (centres undefined) :: False
COC(=O)C(=O)C(C(=O)OC)C(=O)C(=O)Nc1c(C)cccc1C (centres undefined) :: False
Cn1cnc(N)c(N=O)c1=O :: False
CC(C)(C)OC(=O)NC1CC=CCC1NC(=O)OC(C)(C)C (centres undefined) :: False
CC(=O)NC1=C(C)C(=O)c2c(nc3n2CCC3OC(=O)c2ccccc2)C1=N (centres undefined) :: False
CC(C)(C)OC(=O)N1N=CCC1c1ccccc1 (centres undefined) :: False
O/N=C1\CCc2cc3c(cc21)CCC3 :: False
CN1CCOC1(C)c1ccccc1 (centres undefined) :: False
COC(=O)C(=O)OC1(C(C)=O)CC2(c3ccccc3)OC1(c1ccccc1)c1ccccc12 (centres undefined) :: False
CC(C)(C)[C@@H]1NC(=O)CN1C(=O)OCc1ccccc1 :: False
OC1CSCCCSCCSCCCSC1 :: False
CN(C)CCC1(C2=CCCC2)CC/C(=C\c2ccc(Cl)cc2)C1=O (centres undefined) :: False
CC(C)C1CSC2N1C(=O)C2(OCc1ccccc1)C1CC1 (centres undefined) :: False
N=C1OC(CN2CCN(c3ccccc3)CC2)CN1C(=O)Nc1ccccc1 (centres undefined) :: False
CC(=O)O.CN1CCN(CN2C(=O)C3C4C=CC(C3C2=O)C2C3C(=O)N(CN5CCN(C)CC5)C(=O)C3C42)CC1 (centres undefined) :: False
C=C1C2CCC3(CCC4C5(C)CCCC4(C=[N+](CCO)C5)C3C2)C1O (centres undefined) :: False
O=c1c(Cl)c(Cl)cnn1CCc1ccncc1 :: False
C=CC1(c2ccccc2Cl)N/C(=C/OCC)CO1 (centres undefined) :: False
CCCCN(CC)C(=O)C1=C(C)NC(C)=C(C(=O)N(CC)CCCC)C1 :: False
C#CCNCC(=O)O :: False
COc1cc(OC)c(-c2ccc(OCc3ccccc3)c3c(OC)cc(C)cc23)c2c1C(C)=N[C@H](C)C2 :: False
Cc1ccc(C2=Nc3cc(C)c(Cl)cc3S(=O)(=O)NN2)cc1 :: False
COc1ccccc1/C=N/N=C(\N)NO :: False
CCOC1OC(CO)C(O)CC1n1ccc(=O)[nH]c1=O (centres undefined) :: False
O=C(CC(O)(c1ccccc1)c1ccc(Cl)cc1)NC(=O)c1ccccc1O (centres undefined) :: False
